System: Human immunodeficiency virus 1
TEST_DETAILS: Antiviral activity against HIV1 3B infected in human MT2 cells after 5 days by MTT assay
Type: functional, organism-based
ASSAY_CONTEXT: Human immunodeficiency virus 1, 3B, MT2, 120 h
pEC50: −log10 of the molar value.

[
  {
    "GIVEN_SMILES": "Cc1cn([C@H]2C=C[C@@H](CO)O2)c(=O)[nH]c1=O",
    "pEC50": 5.44
  }
]

###

Overview of reported IC50 across a group of compounds:
SYSTEM_UNDER_TEST: Human immunodeficiency virus type 1 reverse transcriptase (Human immunodeficiency virus 1)
OBSERVABLE: IC50 (nM)

[
  {
    "GIVEN_SMILES": "Cc1cc(C#CCCCCCCCC(=O)NCc2cn([C@H]3C[C@H](O)[C@@H](COP(=O)(O)OP(=O)(O)OP(=O)(O)O)O3)c(=O)[nH]c2=O)cc(C)c1Oc1ccnc(Nc2ccc(C#N)cc2)n1",
    "MEASURE_UNIT": "nM",
    "VALUE_MEASURED": 6
  },
  {
    "GIVEN_SMILES": "Cc1cc(C#CCCCCCCCC(=O)NCc2cn([C@H]3C[C@H](O)[C@@H](CO[PH](=O)O)O3)c(=O)[nH]c2=O)cc(C)c1Oc1ccnc(Nc2ccc(C#N)cc2)n1",
    "MEASURE_UNIT": "nM",
    "VALUE_MEASURED": 4.3
  }
]
